# testSystem: HIPK4 (human)
# experimentalProtocol: radiometric filter-binding kinase assay, Kinase HotSpot
# conditionNotes: compound 0.5 µM; ATP 10 µM
propertyLabel: residual activity (%)
Give bare numbers, in %.

Give measured residual activity for every item shown.
1. COc1cc2ncnc(N3CCN(C(=O)Nc4ccc(Oc5ccccc5)cc4)CC3)c2cc1OC
2. CCN(CC)CCCCN1c2ccccc2Oc2ccc(Cl)cc21
3. COc1cc2ncc(-c3ccccc3)nc2cc1OC
4. Cn1sc(=O)n(Cc2ccccc2)c1=O
5. COc1ccc(OC)c2c(=S)c3ccccc3[nH]c12

Outgoing:
1. 75.4
2. 99.2
3. 86.4
4. 98.2
5. 97.3

Below are some molecules; for each one, tell me its residual activity.
1. O=C(CCCc1ccc(-c2ccccc2F)cc1)Nc1ccc(O)cc1
2. Cn1nc2c3c(cccc31)C(=O)c1ccccc1-2
3. COc1ccc(CNC(=O)Nc2ncc([N+](=O)[O-])s2)cc1
4. Oc1ccc(Nc2nc(-c3ccc(Cl)cc3)cs2)cc1
5. CC(C)c1nn(-c2c(Cl)cccc2Cl)c2nc(Cc3ccc(OCCO)cc3)nc(O)c12
6. Cc1nc2cc3nc(-c4cccs4)cnc3cc2n1C
7. O=C1Cc2c([nH]c3ccc(Br)cc23)-c2ccccc2N1
8. CC(C)[C@H](CO)Nc1nc(Nc2cc(N)cc(Cl)c2)c2ncn(C(C)C)c2n1

Outgoing:
[105, 102, 103, 101, 94.7, 103, 105, 96.4]
